assay: Pharmacokinetics IV/PO in rats; type: in vivo, SD rats; settings: SD; rat IV 1.25 mg/kg, plasma
outcome_measure: AUC(0-inf) (ng·h/mL)
Please respond with the number in ng·h/mL and leave the unit unwritten.

Value lookup for AUC(0-inf); key = COc1ccc2cc(C=Cc3ccc(N(C)C)cc3)oc2c1 [KMS88009] 1670

###

experiment: Metabolic stability in liver microsomes; assay type: in vitro ADME, human; details: human liver microsomes; read-out: Remaining % of parent molecule at 60 min.
outcome_measure: remaining at 1 h, 5 µM (%)
Please respond with the number in % and leave the unit unwritten.

Value lookup for remaining at 1 h, 5 µM; key = COc1ccc2cc(C=Cc3ccc(N(C)C)cc3)oc2c1 [KMS88009] 92.7

###

assay: Pharmacokinetics IV/PO in monkeys; type: in vivo, cynomolgus monkeys; settings: cynomolgus monkey, plasma; monkey PO 5.6 mg/kg
outcome_measure: half-life (h)
Please respond with the number in h and leave the unit unwritten.

Value lookup for half-life; key = "COc1ccc2cc(C=Cc3ccc(N(C)C)cc3)oc2c1" 4.3

###

assay: Pharmacokinetics IV/PO in mice; assay type: in vivo, ICR mice; conditions: ICR, plasma; mouse PO 10 mg/kg
outcome_measure: MRT last
Could you kindly put the unit after your number?

Value lookup for MRT last; key = "COc1ccc2cc(C=Cc3ccc(N(C)C)cc3)oc2c1" 5.5 h

###

experiment: in vitro; conditions: monkey, liver microsomes
outcome_measure: half-life at 5 µM (min)
Please respond with the number in min and leave the unit unwritten.

Value lookup for half-life at 5 µM; key = "COc1ccc2cc(C=Cc3ccc(N(C)C)cc3)oc2c1" 35.2

###

experiment: Pharmacokinetics IV/PO in rats; assay type: in vivo, SD rats; details: SD; rat IV 1.25 mg/kg, plasma; read-out: AUC0–24h
outcome_measure: AUC(0-t)
Could you kindly put the unit after your number?

Value lookup for AUC(0-t); key = "COc1ccc2cc(C=Cc3ccc(N(C)C)cc3)oc2c1" 1.64 µg·h/mL

###

Experiment: Pharmacokinetics IV/PO in monkeys
Assay type: in vivo, cynomolgus monkeys
Conditions: cynomolgus monkey; monkey PO 5.6 mg/kg, plasma
Experimental: Pharmacokinetics profile of KMS88009 was obtained using ICR mice, SD rats, beagle dogs and cynomolgus monkeys. Animals were fasted overnight before KMS88009 administration. Mice were divided into 2 groups to receive KMS88009 as a single dose of 2.1 mg/kg intravenous (IV) bolus or 10 mg/kg orally (PO) by gavage. Additionally, KMS88009 was administered orally to estimate the BBB penetration in mice (10, 30 and 100 mg/kg). […] The levels of KMS88009 were determined by the LC-MS/MS analysis. […]
outcome_measure: Cmax (ng/mL)
Please respond with the number in ng/mL and leave the unit unwritten.

Value lookup for Cmax; key = "COc1ccc2cc(C=Cc3ccc(N(C)C)cc3)oc2c1" 505

###

test: Pharmacokinetics IV/PO in mice; assay type: in vivo, ICR mice; settings: ICR; mouse PO 10 mg/kg, plasma
outcome_measure: Cmax

Value lookup for Cmax; key = "COc1ccc2cc(C=Cc3ccc(N(C)C)cc3)oc2c1" 1060 ng/mL

###

Experiment: Pharmacokinetics IV/PO in rats
Assay type: in vivo, SD rats
Details: SD; rat PO 2.5 mg/kg, plasma; read-out: AUC0–24h
Protocol: Pharmacokinetics profile of KMS88009 was obtained using ICR mice, SD rats, beagle dogs and cynomolgus monkeys. Animals were fasted overnight before KMS88009 administration. Mice were divided into 2 groups to receive KMS88009 as a single dose of 2.1 mg/kg intravenous (IV) bolus or 10 mg/kg orally (PO) by gavage. Additionally, KMS88009 was administered orally to estimate the BBB penetration in mice (10, 30 and 100 mg/kg). […] The levels of KMS88009 were determined by the LC-MS/MS analysis. […]
outcome_measure: AUC(0-t) (ng·h/mL)
Please respond with the number in ng·h/mL and leave the unit unwritten.

Value lookup for AUC(0-t); key = "COc1ccc2cc(C=Cc3ccc(N(C)C)cc3)oc2c1" 908

###

experiment: Pharmacokinetics IV/PO in mice; type: in vivo, ICR mice; conditions: ICR; mouse IV 2.1 mg/kg, plasma; read-out: AUC0–24h
outcome_measure: AUC(0-t) (ng·h/mL)
Please respond with the number in ng·h/mL and leave the unit unwritten.

Value lookup for AUC(0-t); key = COc1ccc2cc(C=Cc3ccc(N(C)C)cc3)oc2c1 [KMS88009] 1300

###

test: Plasma and brain pharmacokinetics (BBB penetration) after PO in mice; assay type: in vivo; details: ICR, mouse; plasma, mice PO 30 mg/kg
outcome_measure: Cmax (ng/mL)
Please respond with the number in ng/mL and leave the unit unwritten.

Value lookup for Cmax; key = "COc1ccc2cc(C=Cc3ccc(N(C)C)cc3)oc2c1" 1640

###

test: Plasma and brain pharmacokinetics (BBB penetration) after PO in rats; format: in vivo; conditions: SD, rat; plasma, rats PO 2.5 mg/kg; same data as Table 3
outcome_measure: Tmax
Could you kindly put the unit after your number?

Value lookup for Tmax; key = COc1ccc2cc(C=Cc3ccc(N(C)C)cc3)oc2c1 [KMS88009] 1.7 h

###

Assay: Pharmacokinetics IV/PO in monkeys
Type: in vivo, cynomolgus monkeys
Conditions: cynomolgus monkey; monkey PO 5.6 mg/kg, plasma; read-out: AUC0–24h
Method: Pharmacokinetics profile of KMS88009 was obtained using ICR mice, SD rats, beagle dogs and cynomolgus monkeys. Animals were fasted overnight before KMS88009 administration. Mice were divided into 2 groups to receive KMS88009 as a single dose of 2.1 mg/kg intravenous (IV) bolus or 10 mg/kg orally (PO) by gavage. Additionally, KMS88009 was administered orally to estimate the BBB penetration in mice (10, 30 and 100 mg/kg). […] The levels of KMS88009 were determined by the LC-MS/MS analysis. […]
outcome_measure: AUC(0-t) (ng·h/mL)
Please respond with the number in ng·h/mL and leave the unit unwritten.

Value lookup for AUC(0-t); key = "COc1ccc2cc(C=Cc3ccc(N(C)C)cc3)oc2c1" 3810

###

assay: Pharmacokinetics IV/PO in monkeys; format: in vivo, cynomolgus monkeys; conditions: cynomolgus monkey; monkey PO 5.6 mg/kg, plasma
outcome_measure: AUC(0-inf) (µg·h/mL)
Please respond with the number in µg·h/mL and leave the unit unwritten.

Value lookup for AUC(0-inf); key = "COc1ccc2cc(C=Cc3ccc(N(C)C)cc3)oc2c1" 3.92

###

assay: Plasma and brain pharmacokinetics (BBB penetration) after PO in mice; assay type: in vivo; settings: ICR, mouse; plasma, mice PO 10 mg/kg; read-out: AUC0–24h
outcome_measure: AUC(0-t) (ng·h/mL)
Please respond with the number in ng·h/mL and leave the unit unwritten.

Value lookup for AUC(0-t); key = COc1ccc2cc(C=Cc3ccc(N(C)C)cc3)oc2c1 [KMS88009] 4570

###

test: Pharmacokinetics IV/PO in dogs; type: in vivo, beagle dogs; conditions: beagle; dog IV 1 mg/kg, plasma; read-out: AUC0–24h
outcome_measure: AUC(0-t) (ng·h/mL)
Please respond with the number in ng·h/mL and leave the unit unwritten.

Value lookup for AUC(0-t); key = COc1ccc2cc(C=Cc3ccc(N(C)C)cc3)oc2c1 [KMS88009] 112

###

Assay: Plasma and brain pharmacokinetics (BBB penetration) after PO in mice
Format: in vivo
Conditions: ICR, mouse; plasma, mice PO 30 mg/kg
Protocol: Pharmacokinetics profile of KMS88009 was obtained using ICR mice, SD rats, beagle dogs and cynomolgus monkeys. Animals were fasted overnight before KMS88009 administration. Mice were divided into 2 groups to receive KMS88009 as a single dose of 2.1 mg/kg intravenous (IV) bolus or 10 mg/kg orally (PO) by gavage. Additionally, KMS88009 was administered orally to estimate the BBB penetration in mice (10, 30 and 100 mg/kg). […] The levels of KMS88009 were determined by the LC-MS/MS analysis. […]
outcome_measure: Tmax (h)
Please respond with the number in h and leave the unit unwritten.

Value lookup for Tmax; key = COc1ccc2cc(C=Cc3ccc(N(C)C)cc3)oc2c1 [KMS88009] 1

###

assay: Plasma and brain pharmacokinetics (BBB penetration) after PO in mice; type: in vivo; conditions: ICR, mouse; plasma, mice PO 100 mg/kg
outcome_measure: Tmax (h)
Please respond with the number in h and leave the unit unwritten.

Value lookup for Tmax; key = "COc1ccc2cc(C=Cc3ccc(N(C)C)cc3)oc2c1" 2

###

assay: Plasma and brain pharmacokinetics (BBB penetration) after PO in rats; type: in vivo; conditions: SD, rat; plasma, rats PO 2.5 mg/kg; same data as Table 3; read-out: AUC0–24h
outcome_measure: AUC(0-t)
Could you kindly put the unit after your number?

Value lookup for AUC(0-t); key = "COc1ccc2cc(C=Cc3ccc(N(C)C)cc3)oc2c1" 908 ng·h/mL

###

assay: Pharmacokinetics IV/PO in mice; format: in vivo, ICR mice; conditions: ICR, plasma; mouse PO 10 mg/kg
outcome_measure: half-life
Could you kindly put the unit after your number?

Value lookup for half-life; key = "COc1ccc2cc(C=Cc3ccc(N(C)C)cc3)oc2c1" 4.6 h

The reported measurements were obtained from paper PMC3997483.
